Field: IC50. Provide a value for each of the compounds that follow.
ASSAY TARGET: BRD2 BD1 (Homo sapiens)
Sequence (P25440 74-180 limits assumed): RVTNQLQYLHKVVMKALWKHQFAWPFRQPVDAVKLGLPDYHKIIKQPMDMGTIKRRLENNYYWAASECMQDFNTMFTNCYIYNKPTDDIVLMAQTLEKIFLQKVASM
PROCEDURE SUMMARY: TR-FRET assay, BRD2 BD1
Response body: numeric value in nM, unit text excluded.

Query :: Give reported IC50 value for COc1cc(OC)c2c(=O)cc(-c3cc(C)c(OC[C@H](O)CN4CCCCC4)c(C)c3)oc2c1
Result :: 791

Query :: Give reported IC50 value for Cc1cc(/N=N/c2ccc(S(=O)(=O)Nc3ccccn3)cc2)c(N)cc1O [MS436 (3), reference compound]
Result :: 797
